Reference source: ChEMBL document CHEMBL3588760

# assay.procedure: Cytotoxicity against mouse B16-4A5 cells assessed as cell viability at 10 uM after 70 hrs by WST-8 assay relative to control
# Format: cell-based
# measurement.context: read-out: Activity
value.kind: viability at 70 h, 10 µM (%)
Please respond with the number in % and leave the unit unwritten.

Example entries begin here.
{"compound": "O=c1cc(-c2ccc(O)c(O)c2)oc2cc(O[C@@H]3O[C@H](CO)[C@@H](O)[C@H](O)[C@H]3O)cc(O)c12 [GALUTEOLIN]", "viability at 70 h, 10 µM (%)": 103}
{"compound": "O=c1cc(-c2ccc(O[C@@H]3O[C@H](CO)[C@@H](O)[C@H](O)[C@H]3O)c(O)c2)oc2cc(O)cc(O)c12", "viability at 70 h, 10 µM (%)": 114}

Give recorded viability at 70 h, 10 µM. O=c1c(O)c(-c2ccc(O)c(O)c2)oc2cc(O)cc(O)c12 [QUERCETIN]
106

Check the records and state viability at 70 h, 10 µM for `COc1ccc(-c2cc(=O)c3c(O)cc(O)cc3o2)cc1O[C@@H]1O[C@H](CO)[C@@H](O)[C@H](O)[C@H]1O`
94.5

Tell me its viability at 70 h, 10 µM given O=c1cc(-c2ccc(O)c(O)c2)oc2cc(O)cc(O)c12 [LUTEOLIN] as the entry.
77.2

Identify viability at 70 h, 10 µM associated with the compound O=c1c(O[C@@H]2O[C@H](CO)[C@@H](O)[C@H](O)[C@H]2O)c(-c2ccc(O)c(O)c2)oc2cc(O)cc(O)c12 [ISOQUERCETIN]
95.4

Please report viability at 70 h, 10 µM for the following compound: COc1ccc(-c2cc(=O)c3c(O)cc(O[C@@H]4O[C@H](CO)[C@@H](O)[C@H](O)[C@H]4O)cc3o2)cc1 [TILIANINE]
74.2

Tell me its viability at 70 h, 10 µM given O=C1CC(c2ccc(O)c(O)c2)Oc2cc(O)cc(O)c21 (racemic) as the entry.
88.2

Consider the compound O=c1c(O)c(-c2ccc(O[C@@H]3O[C@H](CO)[C@@H](O)[C@H](O)[C@H]3O)c(O)c2)oc2cc(O)cc(O)c12 [SPIRAEOSIDE] . State its measured viability at 70 h, 10 µM.
106

For the compound `COc1ccc(-c2oc3cc(O)cc(O)c3c(=O)c2O[C@@H]2O[C@H](CO)[C@@H](O)[C@H](O)[C@H]2O)cc1O` , report viability at 70 h, 10 µM.
86.2

====

# assay.procedure: Cytotoxicity against mouse B16-4A5 cells assessed as cell viability at 30 uM after 70 hrs by WST-8 assay relative to control
# Assay type: cell-based
# measurement.context: read-out: Activity
Below is a list of entries, each paired with its recorded viability at 70 h, 30 µM value.
Field: numeric (%). Do not append units.

{"molecule": "O=c1c(O)c(-c2ccc(O)c(O)c2)oc2cc(O)cc(O)c12", "obs.value": 89.1}
{"molecule": "O=c1cc(-c2ccc(O)c(O)c2)oc2cc(O)cc(O)c12", "obs.value": 63.8}

Turning now to a further molecule:
Let me know recorded viability at 70 h, 30 µM for O=C1CC(c2ccc(O)c(O)c2)Oc2cc(O)cc(O)c21 (racemic) , thanks.
72.6

====

# assay.procedure: Downregulation of TRP-2 mRNA expression in theophylline-stimulated mouse B16-4A5 cells assessed as ratio of TRP-2 mRNA to beta-actin mRNA level at 30 uM after 72 hrs by qPCR analysis
# Type: functional, cell-based
value.kind: Ratio
API doc: respond with a numeric literal and nothing else, no unit.

Some solved cases for reference:
{"compound": "O=c1c(O)c(-c2ccc(O)c(O)c2)oc2cc(O)cc(O)c12", "value.kind": "Ratio", "obs.value": 0.59}
{"compound": "O=C1CC(c2ccc(O)c(O)c2)Oc2cc(O)cc(O)c21 (racemic)", "value.kind": "Ratio", "obs.value": 0.43}
{"compound": "COc1ccc(-c2cc(=O)c3c(O)cc(O)cc3o2)cc1O[C@@H]1O[C@H](CO)[C@@H](O)[C@H](O)[C@H]1O", "value.kind": "Ratio", "obs.value": 0.93}

Next item in the queue.
Supply recorded Ratio for `O=c1cc(-c2ccc(O)c(O)c2)oc2cc(O)cc(O)c12` here.
0.82

====

# assay.procedure: Downregulation of tyrosinase mRNA expression in theophylline-stimulated mouse B16-4A5 cells assessed as ratio of tyrosinase mRNA to beta-actin mRNA level at 10 uM after 72 hrs by qPCR analysis
# Assay type: functional, cell-based
Listing of entries alongside the reported Ratio.
Format: numeric value only, no unit, no commentary.

Examples with their reported Ratio follow.
{"compound": "O=C1CC(c2ccc(O)c(O)c2)Oc2cc(O)cc(O)c21 (racemic)", "Ratio": 0.66}
{"compound": "O=c1c(O)c(-c2ccc(O)c(O)c2)oc2cc(O)cc(O)c12 [QUERCETIN]", "Ratio": 0.55}

Specify Ratio for `COc1ccc(-c2cc(=O)c3c(O)cc(O)cc3o2)cc1O[C@@H]1O[C@H](CO)[C@@H](O)[C@H](O)[C@H]1O` and stop.
0.99

For the compound O=c1cc(-c2ccc(O)c(O)c2)oc2cc(O)cc(O)c12 [LUTEOLIN] , report Ratio.
0.74

====

# assay.procedure: Cytotoxicity against mouse B16-4A5 cells assessed as cell viability at 100 uM after 70 hrs by WST-8 assay relative to control
# Type: cell-based
# measurement.context: read-out: Activity
# if measured viability at 70 h, 100 µM < 60%: Condition met  # else: Condition not met

Example cases with answers are listed next.
{"compound": "O=c1c(O[C@@H]2O[C@H](CO)[C@@H](O)[C@H](O)[C@H]2O)c(-c2ccc(O)c(O)c2)oc2cc(O)cc(O)c12", "class": "Condition not met"}
{"compound": "O=c1cc(-c2ccc(O)c(O)c2)oc2cc(O[C@@H]3O[C@H](CO)[C@@H](O)[C@H](O)[C@H]3O)cc(O)c12", "class": "Condition met"}
{"compound": "COc1ccc(-c2cc(=O)c3c(O)cc(O)cc3o2)cc1O[C@@H]1O[C@H](CO)[C@@H](O)[C@H](O)[C@H]1O", "class": "Condition not met"}
{"compound": "O=c1cc(-c2ccc(O)c(O)c2)oc2cc(O)cc(O)c12", "class": "Condition met"}
{"compound": "O=C1CC(c2ccc(O)c(O)c2)Oc2cc(O)cc(O)c21 (racemic)", "class": "Condition met"}

We now examine a further compound.
For O=c1c(O)c(-c2ccc(O[C@@H]3O[C@H](CO)[C@@H](O)[C@H](O)[C@H]3O)c(O)c2)oc2cc(O)cc(O)c12 [SPIRAEOSIDE] , is the recorded viability at 70 h, 100 µM below the cut-off of 60%?
Condition not met

====

inhibition values by entry
# test.target: Plasminogen (Homo sapiens) (UniProt P00747)
# Sequence (P00747 97-580 limits assumed): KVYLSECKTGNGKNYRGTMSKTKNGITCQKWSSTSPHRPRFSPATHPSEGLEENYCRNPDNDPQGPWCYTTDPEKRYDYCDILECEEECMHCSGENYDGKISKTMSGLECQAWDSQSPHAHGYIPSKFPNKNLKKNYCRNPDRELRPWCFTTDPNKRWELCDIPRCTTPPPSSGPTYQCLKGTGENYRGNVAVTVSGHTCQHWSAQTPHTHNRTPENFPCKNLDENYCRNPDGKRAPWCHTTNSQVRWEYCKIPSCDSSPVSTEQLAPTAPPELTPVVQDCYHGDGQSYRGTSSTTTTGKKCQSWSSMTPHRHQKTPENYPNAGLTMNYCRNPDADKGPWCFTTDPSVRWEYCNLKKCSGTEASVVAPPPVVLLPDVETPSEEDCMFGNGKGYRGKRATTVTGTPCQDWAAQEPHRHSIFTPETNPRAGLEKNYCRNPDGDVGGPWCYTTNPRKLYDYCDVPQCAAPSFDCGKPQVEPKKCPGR
# Sequence (P00747 581-810 limits assumed): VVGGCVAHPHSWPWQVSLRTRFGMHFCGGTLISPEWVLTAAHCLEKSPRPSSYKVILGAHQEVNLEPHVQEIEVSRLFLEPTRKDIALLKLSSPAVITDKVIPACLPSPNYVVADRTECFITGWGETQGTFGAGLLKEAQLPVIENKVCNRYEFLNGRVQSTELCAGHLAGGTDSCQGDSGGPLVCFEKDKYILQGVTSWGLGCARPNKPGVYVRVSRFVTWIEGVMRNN
# assay.procedure: Inhibition of plasmin (unknown origin) at 100 uM after 18 hrs by arianor mahogany dye-based fibrin plate assay relative to control
Output spec: scalar in %, unitless text.

Report measured inhibition on Plasminogen (Homo sapiens) (UniProt P00747); entry: O=c1c(O)c(-c2ccc(O[C@@H]3O[C@H](CO)[C@@H](O)[C@H](O)[C@H]3O)c(O)c2)oc2cc(O)cc(O)c12 [SPIRAEOSIDE]
51

Send back Plasminogen (Homo sapiens) (UniProt P00747) inhibition of `O=c1cc(-c2ccc(O[C@@H]3O[C@H](CO)[C@@H](O)[C@H](O)[C@H]3O)c(O)c2)oc2cc(O)cc(O)c12` only.
41.7

====

# assay.procedure: Cytotoxicity against mouse B16-4A5 cells assessed as cell viability at 1 uM after 70 hrs by WST-8 assay relative to control
# Type: cell-based
# measurement.context: read-out: Activity
value.kind: viability at 70 h, 1 µM (%)
Field format: number, assumed %, no unit text.

Look over these answered cases.
{"compound": "O=c1c(O[C@@H]2O[C@H](CO)[C@@H](O)[C@H](O)[C@H]2O)c(-c2ccc(O)c(O)c2)oc2cc(O)cc(O)c12 [ISOQUERCETIN]", "obs.value": 99.8}
{"compound": "COc1ccc(-c2cc(=O)c3c(O)cc(O)cc3o2)cc1O[C@@H]1O[C@H](CO)[C@@H](O)[C@H](O)[C@H]1O", "obs.value": 92.8}
{"compound": "O=C1CC(c2ccc(O)c(O)c2)Oc2cc(O)cc(O)c21 (racemic)", "obs.value": 108}

Could you please provide reported viability at 70 h, 1 µM for O=c1c(O)c(-c2ccc(O)c(O)c2)oc2cc(O)cc(O)c12 [QUERCETIN] ? Thanks!
104

Consider the compound `COc1ccc(-c2oc3cc(O)cc(O)c3c(=O)c2O[C@@H]2O[C@H](CO)[C@@H](O)[C@H](O)[C@H]2O)cc1O` and give its recorded viability at 70 h, 1 µM.
93.4
